The reported measurements were obtained from patent US10508104B2.

Assign EC50 to each entry below.
Measured target: UniProt P35414
Sequence (P35414 whole entry): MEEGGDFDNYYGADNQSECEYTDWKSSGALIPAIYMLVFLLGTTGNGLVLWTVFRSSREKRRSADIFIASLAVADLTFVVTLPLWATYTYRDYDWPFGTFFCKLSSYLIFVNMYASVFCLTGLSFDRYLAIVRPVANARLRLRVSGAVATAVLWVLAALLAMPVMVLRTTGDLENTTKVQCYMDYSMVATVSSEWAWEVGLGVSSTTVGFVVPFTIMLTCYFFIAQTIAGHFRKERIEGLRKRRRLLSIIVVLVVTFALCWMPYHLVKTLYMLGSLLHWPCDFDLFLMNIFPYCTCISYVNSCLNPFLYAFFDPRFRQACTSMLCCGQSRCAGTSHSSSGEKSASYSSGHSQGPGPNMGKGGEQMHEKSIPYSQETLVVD
Assay text: Intracellular cAMP accumulation assay (APJ hcAMP, HTRF)
Assay type: cell-based
Condition parameters: HEK293 cells stably expressing human APJ receptor; inhibition of forskolin-mediated cAMP production; read-out: Human APJ cAMP EC50 Potency range

Find the recorded EC50 belonging to COC[C@@H](c1cc(F)cc(F)c1)n1c(COC(C)C)nc(=O)c(S(=O)(=O)c2ccc(-c3cnn(C)c3C)cc2)c1O [Example 397] and report it.
0.01 to 10 nM

I am curious: what EC50 value has been reported for CCOCc1nc(=O)c(S(=O)(=O)c2ccc(-c3cccnc3C)cc2)c(O)n1[C@@H](CC)c1cccc(C#N)c1 [Example 435] ?
0.01 to 10 nM

Quick check: EC50 of COC[C@@H](c1cccc(C#N)c1)n1c(COC(C)C)nc(=O)c(S(=O)(=O)c2ccc(-c3ccnc(F)c3C)cc2)c1O [Example 395] ?
0.01 to 10 nM

Consider the compound shown here: COC[C@@H](c1ccccc1)n1c(COC(C)C)nc(=O)c(S(=O)(=O)c2ccc(-c3cnccc3C#N)cc2)c1O [Example 413] What is its recorded EC50?
0.01 to 10 nM

Give its EC50 value. Item: CCCCc1nc(=O)c(S(=O)(=O)c2ccc(-c3ccccc3C(=O)NC)cc2)c(O)n1[C@@H](CC)c1ccc(C#N)c(F)c1 [Example 520]
0.01 to 10 nM

Fill in: EC50 of CCCCc1nc(=O)c(S(=O)(=O)c2ccc(-c3cccnc3C)cc2)c(O)n1C(c1cccc(C#N)c1)C1CC1 (centres unmarked) [Example 460] is ___
0.01 to 10 nM

Quick one: EC50 of CCCCc1nc(=O)c(S(=O)(=O)c2ccc(-c3ccncc3C)cc2)c(O)n1[C@@H]1CCc2ccc(C#N)cc21 [Example 544] ?
10 to 100 nM

Consider the compound shown here: CCOCc1nc(=O)c(S(=O)(=O)c2ccc(C(C)(C)C)cc2)c(O)n1-c1c(CC)cccc1CC [Example 361] What is its recorded EC50?
0.01 to 10 nM

Which EC50 reading was recorded for the compound CCCCc1nc(=O)c(S(=O)(=O)c2ccc(-c3ccnc(F)c3C)cc2)c(O)n1C(c1cccc(C#N)c1)C1CC1 (centres unmarked) [Example 459] ?
0.01 to 10 nM

Entry CCOCc1nc(=O)c(S(=O)(=O)c2ccc(-c3ccnc(F)c3C)c(F)c2)c(O)n1C(COC)c1cccc(F)c1 (centres unmarked) [Example 374] : reported EC50 = ?
0.01 to 10 nM

Request the reported EC50 associated with CCCCc1nc(=O)c(S(=O)(=O)c2ccc(-c3cccn(C)c3=O)cn2)c(O)n1[C@@H](CC)c1cccc(C#N)c1 [Example 485]
0.01 to 10 nM

GET /values?readout=EC50&item= CCCCc1nc(=O)c(S(=O)(=O)c2ccc(-c3ccccc3C(=O)N(C)C)cc2)c(O)n1[C@@H](CC)c1cccc(C#N)c1 [Example 513]
0.01 to 10 nM

Dear colleague, I am looking for the recorded EC50 of the following compound: CCCCc1nc(=O)c(S(=O)(=O)c2ccc(-c3ccnc(F)c3C)cc2)c(O)n1[C@@H](CC)c1cc(F)cc(C#N)c1 [Example 458]
0.01 to 10 nM

Report EC50 for CCOCc1nc(=O)c(S(=O)(=O)c2ccc(-c3ccccc3C(N)=O)c(F)c2)c(O)n1C(COC)c1cccc(F)c1 (centres unmarked) [Example 401] please.
0.01 to 10 nM

Fill in the blank: the reported EC50 of CCCCc1nc(=O)c(S(=O)(=O)c2ccc(-c3ccccc3C(=O)NC)cc2)c(O)n1[C@@H]1CCc2ccc(C#N)cc21 [Example 548] is ____.
10 to 100 nM

Which EC50 reading was recorded for the compound CCCCc1nc(=O)c(S(=O)(=O)c2ccc(-c3cccc(C(C)(C)O)c3)cc2)c(O)n1[C@@H](CC)c1cccc(C#N)c1 [Example 531] ?
10 to 100 nM

Fill in the blank: the reported EC50 of CCCCc1nc(=O)c(S(=O)(=O)c2ccc(-c3ccc(F)nc3C)cc2)c(O)n1[C@H](c1cccc(C#N)c1)C(C)C [Example 452] is ____.
0.01 to 10 nM

Data request, read-out EC50, for CCOCc1nc(=O)c(S(=O)(=O)c2ccc(-c3ccnc(F)c3C)cc2)c(O)n1[C@@H](COC)c1cc(F)cc(F)c1 [Example 388]
0.01 to 10 nM

If you can, please state the reported EC50 value of COC[C@@H](c1cccc(C#N)c1)n1c(COC(C)C)nc(=O)c(S(=O)(=O)c2ccc(-c3ccc(F)nc3C)cc2)c1O [Example 389] .
0.01 to 10 nM

What value of EC50 has been reported for the following compound? CCCCc1nc(=O)c(S(=O)(=O)c2ccc(-c3ccccc3C(=O)OC)cc2)c(O)n1[C@@H](CC)c1cccc(C#N)c1 [Example 501]
0.01 to 10 nM

Which measured EC50 value corresponds to CCCCc1nc(=O)c(S(=O)(=O)c2ccc(-c3ccccc3C(=O)N(C)C)cc2)c(O)n1[C@@H](CC)c1ccc(C#N)c(F)c1 [Example 521] ?
0.01 to 10 nM

Value lookup for EC50; key = CCCCc1nc(=O)c(S(=O)(=O)c2ccc(-c3ccccc3C(=O)NC)cc2)c(O)n1[C@H](c1cccc(C#N)c1)C1CC1 [Example 530]
0.01 to 10 nM

Name the reported EC50 value associated with the compound Cc1c(-c2ccc(S(=O)(=O)c3c(O)n([C@H](c4cccc(C#N)c4)C4CC4)c(COC(C)C)nc3=O)cc2)ccnc1F [Example 419]
0.01 to 10 nM

Any idea what its EC50 is? The compound is COC[C@@H](c1cc(F)cc(F)c1)n1c(COC(C)C)nc(=O)c(S(=O)(=O)c2ccc(-c3ccnc(F)c3C)cc2)c1O [Example 378]
0.01 to 10 nM

State the recorded EC50 for this entry: CCCCc1nc(=O)c(S(=O)(=O)c2ccc(-c3ccccc3C(=O)OC)cn2)c(O)n1[C@@H](CC)c1cccc(C#N)c1 [Example 481]
0.01 to 10 nM

Requested read-out: EC50. Entry: CCCCc1nc(=O)c(S(=O)(=O)c2ccc(-c3cccc(C(=O)NC)c3)cc2)c(O)n1[C@@H]1CCc2ccc(C#N)cc21 [Example 543]
10 to 100 nM
